Tested on: A549-CANX-COX4
experiment: phenotypically active (imaging signature differs from DMSO and reproducible) at any of 0.3-9 uM (binary (1 = active, 0 = inactive)); higher = active
assay.context: treatment time: 24 h
Structures can show the parent of a compound that is named as a salt.
measurement.label: phenotypically active
Answers are plain numbers.

Examples with answers:
[
  {
    "molecule": "O=C1NC(=O)C(c2ccccc2)(c2ccccc2)N1",
    "phenotypically active": 0
  },
  {
    "molecule": "CC(C)Cc1ccc(C(C)C(=O)O)cc1 (stereo not drawn)",
    "phenotypically active": 0
  },
  {
    "molecule": "COCCc1ccc(OCC(O)CNC(C)C)cc1 (stereo not drawn)",
    "phenotypically active": 0
  }
]

Required: phenotypically active, one value per molecule below.
1. COc1cc(N2CCN(C)CC2)ccc1Nc1nccc(-c2cn(C)c3cnccc23)n1
2. C/C=C(/C(=C/C)c1ccc(O)cc1)c1ccc(O)cc1
3. CC[C@@H](N)CNc1ccnc(-c2cc(-c3cnn(C)c3)ccc2O)n1
4. Brc1c(Br)c(Br)c2[nH]nnc2c1Br
5. C#C[C@]1(O)CC[C@H]2[C@@H]3CCC4=Cc5oncc5C[C@]4(C)[C@H]3CC[C@@]21C
6. Cc1c2oc3c(C)ccc(C(=O)NC4C(=O)NC(C(C)C)C(=O)N5CCCC5C(=O)N(C)CC(=O)N(C)C(C(C)C)C(=O)OC4C)c3nc-2c(C(=O)NC2C(=O)NC(C(C)C)C(=O)N3CCCC3C(=O)N(C)CC(=O)N(C)C(C(C)C)C(=O)OC2C)c(N)c1=O (stereo not drawn)

1. 1
2. 0
3. 1
4. 0
5. 0
6. 1

Required: phenotypically active, one value per molecule below.
1. C#C[C@]1(OC(C)=O)CC[C@H]2[C@@H]3CCC4=CC(=NO)CC[C@@H]4[C@H]3CC[C@@]21CC [norgestimate]
2. C[C@H](CS)C(=O)N1CCC[C@H]1C(=O)O
3. CC(CN(C)C)CN1c2ccccc2Sc2ccccc21.CC(CN(C)C)CN1c2ccccc2Sc2ccccc21 (stereo not drawn)
4. S=P(N1CC1)(N1CC1)N1CC1
5. COCc1nc2c([nH]1)c(=O)n(C)c(=O)n2CC(C)C
6. C[C@H]1Oc2cc(cnc2N)-c2c(nn(C)c2C#N)CN(C)C(=O)c2ccc(F)cc21
7. OCCOCCN1CCN(C2=Nc3ccccc3Sc3ccccc32)CC1 [Quetiapine hemifumarate]

1: 0; 2: 0; 3: 0; 4: 0; 5: 0; 6: 0; 7: 0

Required: phenotypically active, one value per molecule below.
1. O=C(O/N=C1\c2ccccc2-c2nc3ccccc3nc21)c1ccco1
2. N#Cc1ccccc1OCC(O)CNCCNC(=O)Nc1ccccc1 (stereo not drawn)
3. CCN1C(C)(C)CC(Oc2ccc(C(=O)Nc3ccc(NC(=O)Nc4cc(C(C)(C)C)on4)cc3)nc2)CC1(C)C

[0, 0, 0]

Required: phenotypically active, one value per molecule below.
1. Cc1ccc(Cl)c(Nc2ccccc2C(=O)O)c1Cl
2. CC(C)c1cc(-c2n[nH]c(=O)n2-c2ccc3c(ccn3C)c2)c(O)cc1O
3. O=NN(CCCl)C(=O)NCCCl
4. Cc1cc(C(=O)Nc2cccc(C(=O)Nc3cccc(C(F)(F)F)c3)c2)on1
5. Nc1nccc(-c2ccc3noc(-c4ccc(Cl)cc4)c3c2)n1
6. CON(C)C(=O)N1N=C(c2cc(F)ccc2F)S[C@@]1(CCCN)c1ccccc1 [ARRY 520 trifluoroacetate]
7. C[C@H](NC(=O)[C@@H](O)c1cc(F)cc(F)c1)C(=O)N[C@@H]1C(=O)N(C)c2ccccc2-c2ccccc21

1. 0
2. 1
3. 0
4. 0
5. 1
6. 1
7. 0

Required: phenotypically active, one value per molecule below.
1. Cc1cccc(Nc2ccccc2C(=O)O)c1C
2. Nc1nc(OCC2CCCCC2)c2nc[nH]c2n1

1: 0; 2: 0

Required: phenotypically active, one value per molecule below.
1. CCN1C(=O)NC(c2ccccc2)C1=O (stereo not drawn)
2. CC1=C(/C=C/C(C)=C\C=C\C(C)=C\C(=O)O)C(C)(C)CCC1

1. 0
2. 0

Required: phenotypically active, one value per molecule below.
1. Cn1c(=O)c2nc[nH]c2n(C)c1=O
2. Cc1ccc(Nc2nccc(N(C)c3ccc4c(C)n(C)nc4c3)n2)cc1S(N)(=O)=O
3. FC(F)(F)c1ccc(/C=C/c2nc(COc3ccc(CCCCn4ccnn4)cc3)co2)cc1
4. O=C(Nc1cc(C(F)(F)F)cc(C(F)(F)F)c1)c1cnc(Cl)nc1C(F)(F)F
5. Cc1ccc2ccc(C(Nc3ccccc3)c3ccccc3)c(O)c2n1 (stereo not drawn)

1: 0; 2: 1; 3: 1; 4: 0; 5: 0

Required: phenotypically active, one value per molecule below.
1. CCCCNNC(=O)c1ccc(Br)cc1
2. O=C1CCc2ccc(OCCCCN3CCN(c4cccc(Cl)c4Cl)CC3)cc2N1
3. NCCC(=O)NCCc1c[nH]cn1

[1, 0, 0]

----------
Tested on: A549-TP53BP1-CLTA
experiment: phenotypically active (imaging signature differs from DMSO and reproducible) at any of 0.3-9 uM (binary (1 = active, 0 = inactive)); higher = active
assay.context: treatment time: 24 h
measurement.label: phenotypically active
Answers are plain numbers.

Required: phenotypically active, one value per molecule below.
1. CCCCc1nc(Cl)c(CO)n1Cc1ccc(-c2ccccc2-c2nnn[nH]2)cc1
2. CCN1C(=O)NC(c2ccccc2)C1=O (centres undefined)
3. CCN(CC)c1ccc(/C=N/NC(=O)c2ccncc2)c(O)c1
4. CCN(CC)C(C)CN1c2ccccc2Sc2ccccc21 (centres undefined)

0
0
1
0

Required: phenotypically active, one value per molecule below.
1. NC(=O)C(c1ccccc1)(c1ccccc1)[C@@H]1CCN(CCc2ccc3c(c2)CCO3)C1
2. CCOC(=O)c1c2c3c(cccc3[nH]c1=O)C(=O)c1ccccc1-2
3. COc1ccc(S(=O)(=O)N(CCO)c2ccccc2CN(C)C/C=C/c2ccc(Cl)cc2)cc1
4. CCCCCCCCCCCCCCCC(=O)C(F)(F)F
5. COc1cccc(-c2cc(F)ccc2[C@H]2Cc3nc(N)nc(C)c3C(=O)N2)n1

0
0
1
0
1

Required: phenotypically active, one value per molecule below.
1. NC(=O)c1cccnc1 [Nicotinamide]
2. COc1cc2ncn(-c3cc(OCc4ccccc4C(F)(F)F)c(C(N)=O)s3)c2cc1OC
3. COc1ccc([C@H]2CNC(=O)C2)cc1OC1CCCC1 [(S)-(+)-Rolipram]

0
1
0

Required: phenotypically active, one value per molecule below.
1. COc1cc(N2CCOCC2)ccc1Nc1ncc(Cl)c(Nc2ccccc2NS(C)(=O)=O)n1
2. COc1ccc(S(=O)(=O)Nc2cccnc2Nc2ccc(O)cc2)cc1
3. COc1ccc(C[C@@H]2c3cc(OC)c(OC)cc3CC[N@+]2(C)CCC(=O)OCCCCCOC(=O)CC[N@@+]2(C)CCc3cc(OC)c(OC)cc3[C@H]2Cc2ccc(OC)c(OC)c2)cc1OC [Cisatracurium besylate]

1. 1
2. 1
3. 0

----------
Tested on: WPMY1-ACTB-RAB5A
experiment: lowest phenotypically active concentration; higher = less potent
assay.context: treatment time: 24 h
Counter-ions that a name gives are not always drawn.
Please respond with reported lowest phenotypically active concentration for every item in the list.

Examples with answers:
[
  {
    "compound": "O=C(O/N=C1\\c2ccccc2-c2nc3ccccc3nc21)c1ccco1",
    "readout.value": "9 µM"
  },
  {
    "compound": "C[C@@H](Nc1ncnc2[nH]c(-c3ccc(O)cc3)cc12)c1ccccc1 [PKI 166 hydrochloride]",
    "readout.value": "9 µM"
  },
  {
    "compound": "Cc1ccc(NC(=O)c2cccc(C(C)(C)C#N)c2)cc1Nc1ccc2ncn(C)c(=O)c2c1",
    "readout.value": "3 µM"
  },
  {
    "compound": "Cc1ccc(-n2nc(C(C)(C)C)cc2NC(=O)Nc2ccc(OCCN3CCOCC3)c3ccccc23)cc1",
    "readout.value": "3 µM"
  },
  {
    "compound": "COc1cc2nc(N3CCN(C(=O)C4COc5ccccc5O4)CC3)nc(N)c2cc1OC (stereo not drawn)",
    "readout.value": "9 µM"
  },
  {
    "compound": "COc1ccc(-c2cc3c(C)nc(N)nc3n([C@H]3CC[C@H](OCCO)CC3)c2=O)cn1",
    "readout.value": "≤ 0.3 µM"
  },
  {
    "compound": "CCCCCCCCCCCCC/C=C/[C@@H](O)[C@H](CO)N(C)C",
    "readout.value": "3 µM"
  },
  {
    "compound": "COCc1c(C(C)C)nc(C(C)C)c(/C=C/[C@@H](O)C[C@@H](O)CC(=O)O)c1-c1ccc(F)cc1",
    "readout.value": "≤ 0.3 µM"
  }
]

Required: lowest phenotypically active concentration, one value per compound below.
1. C=C1C(=O)O[C@@H]2C=C(C)CCC=C(C)CC[C@@H]12 [Costunolide]
2. Nc1ccn([C@@H]2O[C@H](CO)[C@@H](O)C2(F)F)c(=O)n1
3. C[C@@H]1CN(CC(=O)Nc2ccc3c(c2)Cc2cccc(-c4cc(=O)cc(N5CCOCC5)o4)c2S3)C[C@H](C)O1
4. COc1ccc(-c2cnc(-c3cccc4c3-c3ccccc3C4=O)o2)cc1
5. CO[C@@H]1[C@H](N(C)C(=O)c2ccccc2)C[C@H]2O[C@]1(C)n1c3ccccc3c3c4c(c5c6ccccc6n2c5c31)C(=O)NC4

1: 9 µM; 2: ≤ 0.3 µM; 3: 3 µM; 4: ≤ 0.3 µM; 5: ≤ 0.3 µM
